- SYSTEM_UNDER_TEST: Voltage-dependent L-type calcium channel subunit alpha-1C (Homo sapiens, UniProt Q13936); further: assay procedure not described here
- Sequence (Q13936 whole entry): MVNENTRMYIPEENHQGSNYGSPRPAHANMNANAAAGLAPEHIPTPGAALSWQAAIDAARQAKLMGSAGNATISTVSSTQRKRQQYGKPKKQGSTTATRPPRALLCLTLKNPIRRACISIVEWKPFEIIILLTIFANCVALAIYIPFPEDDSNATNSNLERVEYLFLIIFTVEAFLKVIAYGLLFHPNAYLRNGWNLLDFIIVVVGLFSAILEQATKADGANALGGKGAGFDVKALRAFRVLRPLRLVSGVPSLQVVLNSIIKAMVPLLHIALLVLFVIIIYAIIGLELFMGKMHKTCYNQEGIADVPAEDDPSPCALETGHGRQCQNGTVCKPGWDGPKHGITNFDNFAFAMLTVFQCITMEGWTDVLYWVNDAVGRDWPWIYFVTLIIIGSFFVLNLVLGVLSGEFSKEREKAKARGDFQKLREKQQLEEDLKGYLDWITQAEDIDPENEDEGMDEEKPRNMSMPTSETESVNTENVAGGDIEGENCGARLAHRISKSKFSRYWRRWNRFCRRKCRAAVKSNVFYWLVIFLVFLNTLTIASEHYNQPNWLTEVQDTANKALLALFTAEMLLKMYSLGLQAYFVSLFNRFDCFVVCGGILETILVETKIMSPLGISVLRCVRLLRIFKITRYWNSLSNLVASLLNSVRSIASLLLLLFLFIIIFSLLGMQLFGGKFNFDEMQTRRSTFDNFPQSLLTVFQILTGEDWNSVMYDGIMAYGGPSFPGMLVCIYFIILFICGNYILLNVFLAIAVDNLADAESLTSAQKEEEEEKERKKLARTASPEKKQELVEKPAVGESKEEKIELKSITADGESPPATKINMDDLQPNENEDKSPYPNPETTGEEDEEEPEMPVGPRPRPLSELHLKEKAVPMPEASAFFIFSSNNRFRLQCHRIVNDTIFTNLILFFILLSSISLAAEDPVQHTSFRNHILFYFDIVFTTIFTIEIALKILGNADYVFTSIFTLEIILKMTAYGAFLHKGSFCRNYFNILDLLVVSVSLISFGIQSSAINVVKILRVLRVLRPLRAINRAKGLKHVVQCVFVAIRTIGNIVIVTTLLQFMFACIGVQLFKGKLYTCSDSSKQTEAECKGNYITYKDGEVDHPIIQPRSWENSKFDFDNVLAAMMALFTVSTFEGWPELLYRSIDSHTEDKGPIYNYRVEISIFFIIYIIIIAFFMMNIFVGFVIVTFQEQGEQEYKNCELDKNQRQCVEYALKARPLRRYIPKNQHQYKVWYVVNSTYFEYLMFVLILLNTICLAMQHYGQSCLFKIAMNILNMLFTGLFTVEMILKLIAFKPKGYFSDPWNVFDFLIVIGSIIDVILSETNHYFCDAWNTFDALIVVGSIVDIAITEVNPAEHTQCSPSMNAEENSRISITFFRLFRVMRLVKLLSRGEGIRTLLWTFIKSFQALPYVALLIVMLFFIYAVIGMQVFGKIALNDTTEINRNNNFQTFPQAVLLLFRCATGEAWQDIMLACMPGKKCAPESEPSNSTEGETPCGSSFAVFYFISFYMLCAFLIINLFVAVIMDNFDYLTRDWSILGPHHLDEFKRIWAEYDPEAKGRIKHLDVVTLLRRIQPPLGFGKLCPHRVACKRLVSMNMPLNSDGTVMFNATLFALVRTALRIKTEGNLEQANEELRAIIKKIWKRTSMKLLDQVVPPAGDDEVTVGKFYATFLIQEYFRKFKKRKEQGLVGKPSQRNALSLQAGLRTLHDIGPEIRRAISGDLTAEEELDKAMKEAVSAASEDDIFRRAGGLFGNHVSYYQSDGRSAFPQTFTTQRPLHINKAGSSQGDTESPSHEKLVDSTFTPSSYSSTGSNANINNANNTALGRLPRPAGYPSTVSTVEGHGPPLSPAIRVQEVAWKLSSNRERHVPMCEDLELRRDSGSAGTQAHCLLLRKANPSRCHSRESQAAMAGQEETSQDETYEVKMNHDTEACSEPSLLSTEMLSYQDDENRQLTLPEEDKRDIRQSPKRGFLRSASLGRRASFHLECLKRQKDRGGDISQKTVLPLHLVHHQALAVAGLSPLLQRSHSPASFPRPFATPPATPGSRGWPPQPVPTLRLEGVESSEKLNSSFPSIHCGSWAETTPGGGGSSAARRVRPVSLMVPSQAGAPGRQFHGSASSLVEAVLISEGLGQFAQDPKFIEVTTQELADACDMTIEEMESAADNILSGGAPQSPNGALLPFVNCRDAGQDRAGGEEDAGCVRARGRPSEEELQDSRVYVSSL
- Type: functional, cell-based
Parameter: AC50. Scope: all listed entries.

Here's what some known entries look like.
1. NC(=O)c1ncn([C@@H]2O[C@H](CO)[C@@H](O)[C@H]2O)n1 [RIBAVIRIN] ... > 50 µM
2. O=C(CCCN1CC=C(n2c(=O)[nH]c3ccccc32)CC1)c1ccc(F)cc1 [DROPERIDOL] ... > 50 µM
3. COC(=O)N[C@@H](C)CNc1nccc(-c2cn(C(C)C)nc2-c2cc(Cl)cc(NS(C)(=O)=O)c2F)n1 [ENCORAFENIB] ... > 30 µM
4. O=C(Nc1c(Cl)cncc1Cl)c1ccc(OC(F)F)c(OCC2CC2)c1 [ROFLUMILAST] ... > 50 µM
5. CCCCNc1ccc(C(=O)OCCN(C)C)cc1 [TETRACAINE] ... > 30 µM

// lookup AC50 | system=Voltage-dependent L-type calcium channel subunit alpha-1C (Homo sapiens, UniProt Q13936) | key= N#Cc1ccccc1-c1cc(-c2ccccn2)cn(-c2ccccc2)c1=O; further: assay procedure not described here
> 30 µM

Now the compound CC(C)N(CCCCOCC(=O)NS(C)(=O)=O)c1cnc(-c2ccccc2)c(-c2ccccc2)n1 [SELEXIPAG]
> 50 µM

Now the compound CNCC[C@H](Oc1cccc2ccccc12)c1cccs1 [DULOXETINE]
29 µM

Now the compound O=C1NC(=O)C(c2ccccc2)(c2ccccc2)N1 [PHENYTOIN]
> 50 µM

The measurements presented in this section are drawn from ChEMBL document CHEMBL5291721.
